Test system: EKVX
protocolText: NCI tumour cell line growth inhibition, 48 h
The source made the active and inactive calls. Cut-off read from the data, not from the text of the source: active = GI50 up to about 1.1 µM and inactive = higher. Residues, ends and D or L forms follow the SMILES beside them.
Possible outcomes: active, inactive

molecule=C/C(CN1C(=O)c2ccccc2C1=O)=N\NS(=O)(=O)c1cccc(C(=O)O)c1 assignedclass=inactive
molecule=CC1=NN(c2nc(N)nc(/C(C#N)=C/c3ccc([N+](=O)[O-])o3)n2)C(C)(C)C1 assignedclass=inactive
molecule=Cc1ccc(C(=O)OC[C@H]2CC[C@@H](n3cc(N(C)C4CCCCC4)c(=O)[nH]c3=O)O2)cc1 assignedclass=inactive
molecule=Cc1nn(-c2ccccc2)c2nc(N3CCOCC3)nnc12 assignedclass=inactive
molecule=CSC1=N/C(=C\c2cccs2)C(=O)N1CN1CCOCC1 assignedclass=inactive
molecule="COc1ccc(C2COc3cc(O)c(O)cc3C2)cc1 (centres undefined)" assignedclass=inactive
molecule="C/C(=C\\CCC1=CC(=O)OC1)CC[C@@H]1[C@H]2C(=O)CC(C)[C@@]3(C)CC[C@]1(C)[C@@]23C (some centres undefined)" assignedclass=inactive
molecule="CCCC1(NC(=O)C(F)(F)F)CC(OC)OC2COC(c3ccccc3)OC21 (centres undefined)" assignedclass=inactive
molecule="CC1(C)CCC(=O)NC1CC(=O)CC1NC(=O)CCC1(C)C (centres undefined)" assignedclass=inactive
molecule="O=c1[nH]c(=O)n(C2CC(O)C(CO)O2)cc1OS(=O)(=O)C(F)(F)F (centres undefined)" assignedclass=inactive
molecule="C=C1CC(COc2ccc3c(C)cc(=O)oc3c2)(c2ccccc2)OC1=O (centres undefined)" assignedclass=inactive
molecule=C[C@]12CCC(=O)[C@@H](CCC3=CC(=O)C=CC3=O)[C@@H]1CCC2=O assignedclass=inactive
molecule=CCN(CC)CCN1CCN=c2c3cc(OC)ccc3n3cnc4ccc1c2c43 assignedclass=active
molecule="C=C1C(=O)O[C@@H]2C[C@@H](C)[C@@H]3[C@@H](OC4OC(COC(C)=O)C(O)C(O)C4O)CC(=O)[C@@]3(C)C[C@H]12 (some centres undefined)" assignedclass=inactive
molecule=COC(=O)[C@@H]1[C@@H]2NC(=S)N[C@@]1(C)Oc1ccccc12 assignedclass=inactive
molecule="COC(=O)[C@@H]1CCCCC[C@H]2C(CO)=C(C)C(=O)C12 (some centres undefined)" assignedclass=inactive
molecule="COC(=O)C(Cc1ccccc1)NC(=O)c1ccc(CNC(=S)NCc2cccc(CNC(=S)NCc3ccccc3)c2)cc1 (centres undefined)" assignedclass=inactive
molecule=C=CCNC(=S)N/N=C1\C(=O)Nc2ccc([N+](=O)[O-])cc21 assignedclass=inactive
molecule=COC(=O)c1sc(=S)sc1SCc1ccc(CSc2sc(=S)sc2C(=O)OC)cc1 assignedclass=inactive
molecule=COC(=O)CCC(=O)c1ccc2c(c1)CC1(Cc3ccccc3C1)C2 assignedclass=inactive
molecule=COc1ccc(/C=C2\N=C(c3ccccc3)N(Nc3nnc(NN4C(=O)/C(=C/c5ccc(OC)cc5)N=C4c4ccccc4)c4ccccc34)C2=O)cc1 assignedclass=inactive
molecule=CCOC(=O)CSc1nc(-c2ccccc2)c(C#N)c(=O)[nH]1 assignedclass=inactive
molecule=Cn1c2ccccc2c2c3c(c4c5ccccc5n(C)c4c21)C(=O)NC3=O assignedclass=inactive
molecule=CC1=CC(=O)c2ccc3c4ccccc4n(C)c3c2C1=O assignedclass=inactive
molecule=O=C(/C=C/c1ccc2c(c1)OCO2)c1ccccc(=O)c1O assignedclass=inactive
molecule=Cc1c2c(c(C)c3c[n+](C)ccc13)Oc1ccccc1O2 assignedclass=inactive
molecule=CCc1cccc(C(C)C)c1NC(=O)C(=O)CC(=O)c1c(C)[n+]([O-])c2ccccc2[n+]1[O-] assignedclass=inactive
molecule="CC(=O)NC(CO)C(=O)NC(Cc1ccc(O)cc1)C(=O)NCC(N)=O (stereo not drawn) (Ac-Ser-Tyr-Gly-NH2; configuration not given here)" assignedclass=inactive
molecule="C=CCC1C(=O)CC2(C)CC(=O)C(CC=C)C12C (centres undefined)" assignedclass=inactive
molecule=O=[N+]([O-])c1cc([N+](=O)[O-])c(Nn2c3ccccc3c3ccccc32)c([N+](=O)[O-])c1 assignedclass=inactive
molecule="CC(=O)OC(C)C1C2=C(C(=O)CC1(C)O)C(=O)c1c(ccc(-c3ccc4c(c3O)C(=O)C3=C(C4=O)C(C(C)OC(C)=O)C(C)(O)CC3=O)c1O)C2=O (centres undefined)" assignedclass=inactive
molecule=COC(=O)[C@@H]1COC(=O)N1 assignedclass=inactive
molecule="CCCCCCCCCCCCCCCCCCOCC(COCCOCC[N+]1(CCCCCC(=O)[O-])CCCC1)Oc1ncccn1 (centres undefined)" assignedclass=inactive
molecule=CCn1c2ccc(C(=O)CCCN3CCCCC3)cc2c2cc(C(=O)CCCN3CCCCC3)ccc21 assignedclass=inactive
molecule="COc1c(OC(C)=O)c(OC(C)=O)cc2c1-c1ccc(OC)c(=O)cc1C(NC(C)=O)CC2 (centres undefined)" assignedclass=inactive
molecule=CC(NC(=O)c1ccccc1)(C(=O)O)C(=O)O assignedclass=inactive
molecule=CN(C)CCCNc1c2c(nc3ccc(Cl)cc13)CCCC2 assignedclass=inactive
molecule=COCCOCCOC1=CC(=O)c2c(O)ccc(O)c2C1=O assignedclass=inactive
molecule=COP(=O)(OC)[C@@](O)(c1ccccc1)[C@@H](O)[C@H](O)c1ccccc1 assignedclass=inactive

* * *

System: MDA-N
protocolText: NCI tumour cell line growth inhibition, 48 h
Active and inactive are the calls of the source. Cut-off read from the data, not from the text of the source: active = GI50 up to about 1.1 µM and inactive = higher.
Outcome codes: 1.0 (active), 0.0 (inactive)

compound=Cc1nnc2sc(-c3ccc([N+](=O)[O-])o3)nn12 assignedclass=0.0
compound=C[C@]1(O)O[C@@H]2OCC[C@@H]2C2=C1C(=O)c1ccccc1C2=O assignedclass=0.0
compound=C1=CC2(C=CC13O[C@H](C1CCCCC1)[C@@H](C1CCCCC1)O3)O[C@H](C1CCCCC1)[C@@H](C1CCCCC1)O2 assignedclass=0.0
compound="COC1=NC(NC2OCC(O)C(O)C2O)=C(NC(C)=O)CN1C (stereo not drawn)" assignedclass=0.0
compound="N#CC1(C#N)C2C=CC(C3CCC=C32)C1(C#N)C#N (stereo not drawn)" assignedclass=0.0
compound=O=C(NNC(=S)Nc1ccccc1)c1csc(NC(=S)NC2CCCCC2)n1 assignedclass=0.0
compound=COc1ccc(-c2cn3c(n2)sc2cc(C)ccc23)cc1 assignedclass=0.0
compound=CCCCC1=C(C(=O)N2CCOCC2)C2(OCCO2)C1=O assignedclass=0.0
compound="Cc1cn(Cc2cnnn2CC2OC(n3cc(C)c(=O)[nH]c3=O)CC2O)c(=O)[nH]c1=O (stereo not drawn)" assignedclass=0.0
compound=C[N+]1(C)CC[N+](C)(C)[BH-]1C(O)O assignedclass=0.0
compound=COc1ccc2c(-c3ccc(O)cc3)c(Oc3ccccc3)c(=O)oc2c1 assignedclass=0.0
compound=Cc1nc2ccccc2c(=O)n1NC(=O)Cc1ccccc1 assignedclass=0.0
compound=O=C(CCCn1ccnc1[N+](=O)[O-])NCCn1ccnc1 assignedclass=0.0
compound="CCN1C(=O)c2ccccc2C1(O)c1ccc(Cl)cc1 (stereo not drawn)" assignedclass=0.0
compound=COC(=O)[C@@H]1COC(=O)N1 assignedclass=0.0
compound=S=C(CSc1ccccc1)Nc1cccc2ccccc12 assignedclass=0.0
compound=Cc1ccc2c(c1)-c1nc(N)c(C#N)c(-c3ccc(Cl)cc3)c1CCS2(=O)=O assignedclass=0.0
compound="C=C(Cl)C(Cl)(CBr)CCCC(C)(C)Cl (stereo not drawn)" assignedclass=0.0
compound="COc1cc(/C=C2\\C(=O)N(c3ccc(NC(C)=O)cc3)C(c3ccccc3)S2(=O)=O)cc(OC)c1OC (stereo not drawn)" assignedclass=0.0
compound=Cc1nc2cc(F)c(F)cc2[nH]c1=O assignedclass=0.0
compound="CC(NC(=N)N)C(=O)O (stereo not drawn)" assignedclass=0.0
compound=CN(C)CCNC(=O)Cn1cnc2cccc([N+](=O)[O-])c2c1=O assignedclass=0.0
compound="COc1cc2cc(C(=O)N3CC(CCl)c4ccc(N(C)C)cc43)[nH]c2c(OC)c1OC (stereo not drawn)" assignedclass=1.0

* * *

Test system: MOLT-4
protocolText: NCI tumour cell line growth inhibition, 48 h
Active and inactive are the calls of the source. Rule as the data show it: active = GI50 up to about 1.1 µM and inactive = higher. Residues, ends and D or L forms follow the SMILES beside them.
Possible outcomes: active, inactive

compound="C[N+](C)(C)CC1CCC/C1=N/O (stereo unspecified)" assignedclass=inactive
compound=COc1ccc2c(c1)CCc1c-2n(CCN2CCCCC2)c2ccc(OC)cc12 assignedclass=inactive
compound="C=C(Cl)C(Cl)(CBr)CCCC(C)(C)Cl (stereo unspecified)" assignedclass=inactive
compound="CC(C)N(C(=O)C12C3C4C1(I)C1C2C3(I)C41C(=O)N(C(C)C)C(C)C)C(C)C (stereo unspecified)" assignedclass=inactive
compound=O=[N+]([O-])c1cc([N+](=O)[O-])c(Nn2c3ccccc3c3ccccc32)c([N+](=O)[O-])c1 assignedclass=active
compound="CC1=NN(C(=O)Nc2ccccc2)C(=O)C2CCC(=O)N12 (stereo unspecified)" assignedclass=inactive
compound=CCOC(=O)c1s/c(=N\Nc2nc3ccccc3cc2C2OCCO2)n(Cc2ccccc2)c1C assignedclass=inactive
compound="COc1ccc(C(=O)C(CC2C(=O)NC(=O)NC2=O)c2ccc(OC)cc2)cc1 (stereo unspecified)" assignedclass=inactive
compound="Cc1ccc([N+](=O)[O-])cc1NC(=O)C(=O)C(C(=O)c1ccccc1F)C1OC(=O)c2ccccc21 (stereo unspecified)" assignedclass=inactive
compound=CCN(CCCl)c1ccc(NC(=O)c2cc(C(=O)NCCN(C)C)cc(C(=O)Nc3ccc(N(CC)CCCl)cc3)c2)cc1 assignedclass=active
compound="CCOC(=O)C1C(c2ccc(Br)cc2)N(Cc2ccccc2)C(c2ccc(Br)cc2)C(C(=O)OC)S1(=O)=O (stereo unspecified)" assignedclass=inactive
compound="CC(=O)NC(CO)C(=O)NC(Cc1ccc(O)cc1)C(=O)NCC(N)=O (stereo not drawn) (Ac-Ser-Tyr-Gly-NH2; configuration not given here)" assignedclass=inactive
compound="O=c1c2ccccc2nc(-c2ccccc2Cl)n1NC1OC(CO)C(O)C(O)C1O (stereo unspecified)" assignedclass=inactive
compound="CCOP(=O)(OCC)C1CC(O)C(=O)N1 (stereo unspecified)" assignedclass=inactive
compound=Cc1nn(-c2ccccc2)c2nc(N3CCOCC3)nnc12 assignedclass=inactive
compound="COC1=NC(NC2OCC(O)C(O)C2O)=C(NC(C)=O)CN1C (stereo unspecified)" assignedclass=inactive
compound=CCCCOC(=O)NC(Nc1ccc(S(=O)(=O)Nc2ncccn2)cc1)(C(F)(F)F)C(F)(F)F assignedclass=inactive
compound="COc1cccc(C2c3cc4c(cc3OC3COC(=O)C32)OCO4)c1OC (stereo unspecified)" assignedclass=inactive
compound=CN(C)/N=N/c1cccc(C(N)=O)c1 assignedclass=inactive
compound=COc1ccc2c(Cl)cc(NC(=S)Nc3ccccc3)nc2c1 assignedclass=inactive
compound="O=C1C2=Cc3ccccc3OC2(O)Oc2cc(O)ccc21 (stereo unspecified)" assignedclass=inactive

Value source: ChEMBL document CHEMBL1201862
